Test system: OVCAR-5 ovarian
measurement protocol: NCI tumour cell line growth inhibition, 48 h
What TGI was measured for each of the following?

QUERY: Consider the compound O=c1ncc(-c2ccc(C(F)(F)F)cc2)c(NC2CCCCCC2)[nH]1 and give its measured TGI.
RESULT: 48.3 µM

QUERY: Consider the compound COC(=O)/C=C\c1ccc2c(c1)CC1(C2)Cc2ccc(/C=C/C(=O)OC)cc2C1 (stereo unspecified) and give its measured TGI.
RESULT: > 31.6 µM

QUERY: Consider the compound O=C1CC2[C@@H](N3CCCC3)CCC(N1Cc1ccccc1)C2(O)O (stereo partly specified) and give its measured TGI.
RESULT: > 100 µM

QUERY: Consider the compound O=C(Sc1c(-c2ccccc2)c(=O)n(-c2ccccc2)c(=S)n1-c1ccccc1)c1ccc(Cl)cc1 and give its measured TGI.
RESULT: > 100 µM

QUERY: Consider the compound CNC(=O)Nc1cc2c3c(c1)CCCN3CCC2 and give its measured TGI.
RESULT: > 10 µM

QUERY: Consider the compound Cc1ccc(SCC(OCn2cnc3c(N)ncnc32)[C@H](C)F)cc1 (stereo partly specified) and give its measured TGI.
RESULT: > 100 µM
